Every entry's value here was drawn from paper PMC6337126.

- test method notes: Solubility of TP 5 in solvents by HPLC
- Format: physicochemical
- experimental context: PBS containing 20.0% v/v ethanol; PBS pH 7.4 containing 20.0% v/v ethanol; read-out: Solubility in release (acceptor) medium

compound: Cc1cc2c(s1)C1=NC(=O)OC1(c1ccc(Cl)c(Cl)c1)CC2 (stereo not shown)
solubility (µg/mL): 88.2

----------
- test method notes: Solubility of TP 5 in solvents by HPLC
- Format: physicochemical
- experimental context: dichloromethane, 25 °C, organic solvent or mixture, thermodynamic from solid; read-out: Solubility

compound: Cc1cc2c(s1)C1=NC(=O)OC1(c1ccc(Cl)c(Cl)c1)CC2 (stereo not shown)
solubility: > 13 mg/mL
